The origin of these recorded values is paper PMC8071358.

Kindly state MIC, SSI 1104 for each of the entries shown.
- System: A. baumannii SSI1104
- procedure_details: BPP-PNA MIC, broth microdilution
- Type: cell-based, Acinetobacter baumannii
- setup_conditions: Sigma MHB medium without cation; 37 °C, 18 h
{(KFF)3K-eg1} = H-(KFF)3K peptide (K lysine, F phenylalanine) with eg1 linker (8-amino-3,6-dioxaoctanoyl), on the PNA N terminus (5' end); {(kff)3k-eg1} = D-form (kff)3k peptide with eg1 linker (8-amino-3,6-dioxaoctanoyl), on the PNA N terminus; {NH2} = C-terminal amide
Give bare numbers, in µM.

Worked cases, answers included:
H-(kff)3k-eg1-TGATTTGCCAC-NH2 (all peptide nucleic acid (PNA), 5' {(kff)3k-eg1}, 3' {NH2}) [PNA 5823, anti-acpP PNA with D-form peptide, match] :: 4
H-(kff)3k -eg1-TGACTTGTCAC-NH2 (all peptide nucleic acid (PNA), 5' {(kff)3k-eg1}, 3' {NH2}) [PNA 5824, anti-acpP PNA with D-form peptide, mismatch] :: 8
H-(KFF)3K-eg1-TGACTTGTCAC-NH2 (all peptide nucleic acid (PNA), 5' {(KFF)3K-eg1}, 3' {NH2}) [PNA 5640, anti-acpP mismatch control of 5639] :: 4
H-(KFF)3K-eg1-TGATTTGCCAC-NH2 (antisense; N-terminal (KFF)3K-eg1 peptide, C-terminal amide, backbone not given here, further chemistry not given here) [PNA 5639, anti-acpP peptide-PNA conjugate, match, +1 to +11] :: 2
H-(KFF)3K-eg1-ATATCGCTCAC-NH2 (all peptide nucleic acid (PNA), 5' {(KFF)3K-eg1}, 3' {NH2}) [PNA 5652, anti-acpP peptide-PNA conjugate, match, +40 to +50] :: 4

Next up:
[Q] MIC, SSI 1104 lookup needed for H-(KFF)3K-eg1-ATACCGCTTAC-NH2 (all peptide nucleic acid (PNA), 5' {(KFF)3K-eg1}, 3' {NH2}) [PNA 5653, anti-acpP mismatch control of 5652] , thanks.
[A] 4

* * *

Kindly state MIC (complete growth inhibition) over the CRAB strains tested for each of the entries shown.
- System: CRAB strains
- procedure_details: BPP-PNA MIC/MBC summarised over the panel of strains
- Format: cell-based, Acinetobacter baumannii
- setup_conditions: several A. baumannii strains
{(KFF)3K-eg1} = H-(KFF)3K peptide (K lysine, F phenylalanine) with eg1 linker (8-amino-3,6-dioxaoctanoyl), on the PNA N terminus (5' end); {NH2} = C-terminal amide
Answers are plain numbers, in µM.

H-(KFF)3K-eg1-TTTCATGGGTG-NH2 (antisense; N-terminal (KFF)3K-eg1 peptide, C-terminal amide, backbone not given here, further chemistry not given here) [PNA 5656, anti-rne peptide-PNA conjugate, match, −5 to +6] :: 2

Next up:
[Q] MIC (complete growth inhibition) over the CRAB strains tested lookup needed for H-(KFF)3K-eg1-ATATCGCTCAC-NH2 (all peptide nucleic acid (PNA), 5' {(KFF)3K-eg1}, 3' {NH2}) [PNA 5652, anti-acpP peptide-PNA conjugate, match, +40 to +50] , thanks.
[A] 4

* * *

- System: A. baumannii ATCC 19606
- procedure_details: BPP-PNA MIC, broth microdilution
- Format: cell-based, Acinetobacter baumannii
- setup_conditions: MHB without cation (Oxoid); 37 °C, 18 h
{(KFF)3K-eg1} = H-(KFF)3K peptide (K lysine, F phenylalanine) with eg1 linker (8-amino-3,6-dioxaoctanoyl), on the PNA N terminus (5' end); {(R-Ahx-R)4-Ahx} = H-(R-Ahx-R)4-Ahx peptide (R arginine, Ahx 6-aminohexanoyl), on the PNA N terminus; {NH2} = C-terminal amide
measure_name: MIC, ATCC 19606

State recorded MIC, ATCC 19606 for all listed substances.
1. H-(R-Ahx-R)4-Ahx-GAGTCCAGGAC-NH2 (all peptide nucleic acid (PNA), 5' {(R-Ahx-R)4-Ahx}, 3' {NH2}) [PNA 5616, anti-ftsZ (R-Ahx-R)4-Ahx-PNA, mismatch]
2. H-(KFF)3K-eg1-GGCCATGACCT-NH2 (N-terminal (KFF)3K-eg1 peptide, C-terminal amide, backbone not given here, further chemistry not given here) [PNA 5658, anti-ftsZ peptide-PNA conjugate, match, −5 to +6]
3. H-(KFF)3K-eg1-TGATTTGCCAC-NH2 (antisense; N-terminal (KFF)3K-eg1 peptide, C-terminal amide, backbone not given here, further chemistry not given here) [PNA 5639, anti-acpP peptide-PNA conjugate, match, +1 to +11]
4. H-(KFF)3K-eg1-ATGAGGCCATG-NH2 (all peptide nucleic acid (PNA), 5' {(KFF)3K-eg1}, 3' {NH2}) [PNA 5657, anti-ftsZ peptide-PNA conjugate, match, −1 to +10]
5. H-(KFF)3K-eg1-GAGGCCATGAC-NH2 (antisense; N-terminal (KFF)3K-eg1 peptide, C-terminal amide, backbone not given here, further chemistry not given here) [PNA 5612, anti-ftsZ peptide-PNA conjugate, match, −3 to +8]
6. H-(R-Ahx-R)4-Ahx-GAGGCCATGAC-NH2 (N-terminal (R-Ahx-R)4-Ahx peptide, C-terminal amide, backbone not given here, further chemistry not given here) [PNA 5613, anti-ftsZ (R-Ahx-R)4-Ahx-PNA, match]

[A]
1. >16 µM
2. 4 µM
3. 2 µM
4. >16 µM
5. 4 µM
6. >16 µM

State recorded MIC, ATCC 19606 for all listed substances.
1. H-(KFF)3K-eg1-GAGTCCAGGAC-NH2 (all peptide nucleic acid (PNA), 5' {(KFF)3K-eg1}, 3' {NH2}) [PNA 5615, anti-ftsZ mismatch control of 5612]
2. H-(KFF)3K-eg1-ATATCGCTCAC-NH2 (all peptide nucleic acid (PNA), 5' {(KFF)3K-eg1}, 3' {NH2}) [PNA 5652, anti-acpP peptide-PNA conjugate, match, +40 to +50]

[A]
1: 8 µM; 2: 4 µM

* * *

- Test system: CRAB strain SSI1104
- procedure_details: Antibiotic MIC (CLSI microdilution or gradient strips)
- Format: cell-based, Acinetobacter baumannii
- setup_conditions: Acinetobacter baumannii, SSI1104
measure_name: MIC (µg/mL)
Give bare numbers, in µg/mL.

State recorded MIC for all listed compounds.
1. CN(C)c1cc(NC(=O)CNC(C)(C)C)c(O)c2c1C[C@H]1C[C@H]3[C@H](N(C)C)C(O)=C(C(N)=O)C(=O)[C@@]3(O)C(O)=C1C2=O
2. CNC(C)C1CCC(N)C(OC2C(N)CC(N)C(OC3OCC(C)(O)C(NC)C3O)C2O)O1 (stereo not shown)

[A]
1
32

* * *

Kindly state MIC, SSI 1104 for each of the entries shown.
- System: A. baumannii SSI1104
- procedure_details: BPP-PNA MIC, broth microdilution
- Assay type: cell-based, Acinetobacter baumannii
- setup_conditions: MHB without cation (Oxoid); 37 °C, 18 h
{(KFF)3K-eg1} = H-(KFF)3K peptide (K lysine, F phenylalanine) with eg1 linker (8-amino-3,6-dioxaoctanoyl), on the PNA N terminus (5' end); {NH2} = C-terminal amide

H-(KFF)3K-eg1-GAGGCCATGAC-NH2 (antisense; N-terminal (KFF)3K-eg1 peptide, C-terminal amide, backbone not given here, further chemistry not given here) [PNA 5612, anti-ftsZ peptide-PNA conjugate, match, −3 to +8] :: 4 µM

Next up:
[Q] MIC, SSI 1104 lookup needed for H-(KFF)3K-eg1-ATATCGCTCAC-NH2 (all peptide nucleic acid (PNA), 5' {(KFF)3K-eg1}, 3' {NH2}) [PNA 5652, anti-acpP peptide-PNA conjugate, match, +40 to +50] , thanks.
[A] 4 µM

* * *

- Test system: CRAB strain AC44
- procedure_details: BPP-PNA MIC, broth microdilution
- Assay type: cell-based, Acinetobacter baumannii
- setup_conditions: Sigma MHB medium without cation; 37 °C, 18 h
{(KFF)3K-eg1} = H-(KFF)3K peptide (K lysine, F phenylalanine) with eg1 linker (8-amino-3,6-dioxaoctanoyl), on the PNA N terminus (5' end); {(kff)3k-eg1} = D-form (kff)3k peptide with eg1 linker (8-amino-3,6-dioxaoctanoyl), on the PNA N terminus; {NH2} = C-terminal amide
measure_name: MIC, AC44 (µM)
Answers are plain numbers, in µM.

Worked cases, answers included:
H-(KFF)3K-eg1-TGATTTGCCAC-NH2 (antisense; N-terminal (KFF)3K-eg1 peptide, C-terminal amide, backbone not given here, further chemistry not given here) [PNA 5639, anti-acpP peptide-PNA conjugate, match, +1 to +11] :: 1
H-(kff)3k -eg1-TGACTTGTCAC-NH2 (all peptide nucleic acid (PNA), 5' {(kff)3k-eg1}, 3' {NH2}) [PNA 5824, anti-acpP PNA with D-form peptide, mismatch] :: 4
H-(KFF)3K-eg1-ATACCGCTTAC-NH2 (all peptide nucleic acid (PNA), 5' {(KFF)3K-eg1}, 3' {NH2}) [PNA 5653, anti-acpP mismatch control of 5652] :: 4
H-(KFF)3K-eg1-TGACTTGTCAC-NH2 (all peptide nucleic acid (PNA), 5' {(KFF)3K-eg1}, 3' {NH2}) [PNA 5640, anti-acpP mismatch control of 5639] :: 4
H-(KFF)3K-eg1-ATATCGCTCAC-NH2 (all peptide nucleic acid (PNA), 5' {(KFF)3K-eg1}, 3' {NH2}) [PNA 5652, anti-acpP peptide-PNA conjugate, match, +40 to +50] :: 4

Next up:
[Q] MIC, AC44 lookup needed for H-(kff)3k-eg1-TGATTTGCCAC-NH2 (all peptide nucleic acid (PNA), 5' {(kff)3k-eg1}, 3' {NH2}) [PNA 5823, anti-acpP PNA with D-form peptide, match] , thanks.
[A] 4
